All figures here come from patent US5536497A.

system: P. gingivalis 2561 binding to sHAP beads; assay: microbe, parasite or virus in culture; type: cell-based, Porphyromonas gingivalis; details: Table 2; amount 0.1 mg; minus = enhancement of binding
Result type: Inhibition (%)

1) CC(=O)N[C@H]1[C@H]([C@H](O)[C@H](O)CO)OC(O)(C(=O)O)C[C@@H]1O (stereo partly drawn) [Sialic acid (N-acetyl neuraminic acid), N-acetyl neuraminic acid]    28
2) O=C[C@H](O)[C@@H](O)[C@H](O)[C@H](O)CO [Glucose]    -10
3) OC[C@H]1O[C@H](O[C@H]2[C@H](O)[C@@H](O)[C@H](O)O[C@@H]2CO)[C@H](O)[C@@H](O)[C@@H]1O [Maltose]    -8
4) CC(=O)N[C@H]1C(O)O[C@H](CO)[C@H](O)[C@@H]1O (stereo partly drawn) [N-Acetylgalactosamine]    -5
5) CC(=O)N[C@H]1C(O)O[C@H](CO)[C@@H](O)[C@@H]1O (stereo partly drawn) [N-Acetylglucosamine]    -15
6) NCCCC[C@H](N)C(=O)O [L-Lysine]    5
7) N[C@H]1C(O)O[C@H](CO)[C@H](O)[C@@H]1O (stereo partly drawn) [Galactosamine]    8
8) N=C(N)NCCC[C@H](N)C(=O)O [L-Arginine]    0
9) O=C[C@@H](O)[C@@H](O)[C@H](O)[C@H](O)CO [Mannose]    -15
10) O=C[C@H](O)[C@@H](O)[C@H](O)[C@H](O)C(=O)O [D-Glucuronic acid]    33
11) O=C[C@H](O)[C@@H](O)[C@@H](O)[C@H](O)CO [Galactose]    -7
12) O=C[C@H](O)[C@@H](O)[C@@H](O)[C@H](O)C(=O)O [D-Galacturonic acid]    21
13) OC[C@H]1O[C@@H](O[C@H]2[C@H](O)[C@@H](O)C(O)O[C@@H]2CO)[C@H](O)[C@@H](O)[C@H]1O (stereo partly drawn) [Lactose]    -1
14) C[C@H](O)[C@@H](O)[C@@H](O)[C@H](O)C=O [Fucose]    1
15) N[C@H]1C(O)O[C@H](CO)[C@@H](O)[C@@H]1O (stereo partly drawn) [Glucosamine]    0
